Assay: 8581 concentration in serum after i.p. injection
Assay type: in vivo, mice
Conditions: B16;129F1, mouse, ip, 7 h after i.p. injection, 1 mg/kg, control mice
measured-quantity: concentration at 7 h

Give the reported concentration at 7 h for this compound. FC(F)c1ncn2c1Cn1ncnc1-c1cc(Br)ccc1-2
< 0.5 ng/mL

* * *

Assay: 8581 concentration in serum after i.p. injection
Assay type: in vivo, mice
Conditions: mouse, ip, 3 h after i.p. injection, 0.1 mg/kg, Nf1+/− mice
measured-quantity: concentration at 3 h

Give the reported concentration at 3 h for this compound. FC(F)c1ncn2c1Cn1ncnc1-c1cc(Br)ccc1-2
< 0.5 ng/mL
